Tested on: Bacillus cereus
Assay: Minimal inhibitory concentration against Bacillus cereus ATCC 10702 was determined by 2-fold agar dilution streak method at 37: C for 18 h
Format: functional
Conditions: ATCC 10702, 18 h
recorded-metric: MIC (µg/mL)

>>> df
                                   compound  observed_value
0  NCC1CCC(N)C(OC2C(N)CC(NC(=O)[C@H](O)CCN=C(N)N)C(OC3OC(CO)C(O)C(N)C3O)C2O)O1 (stereo not given in full)            0.78
1  NCC1CCC(N)C(OC2C(N)CC(N=C(N)N)C(OC3OC(CO)C(O)C(N)C3O)C2O)O1 (stereo not given)              25
2  NCC1CCC(N)C(OC2C(N)CC(NC(=O)CCCN=C(N)N)C(OC3OC(CO)C(O)C(N)C3O)C2O)O1 (stereo not given)            6.25
3  NCC1CCC(N)C(OC2C(N)CC(NC(=O)[C@H](N)CCCN=C(N)N)C(OC3OC(CO)C(O)C(N)C3O)C2O)O1 (stereo not given in full)              25
4  NCCCC(=O)NC1CC(N)C(OC2OC(CN)CCC2N)C(O)C1OC1OC(CO)C(O)C(N)C1O (stereo not given)            6.25
